System: Acinetobacter baumannii
ASSAY_TEXT: Antimicrobial activity against SAM/CTX/CRO/CN drugs-resistant Acinetobacter baumannii 0320 assessed as inhibition of bacterial growth incubated for approximately 18 hrs by resazurin dye based broth microdilution assay
Type: functional
ENDPOINT: MIC

H-AWKAKLKRLAIAWKR-OH 4 µM
H-KWFKKLPKILHKLAKKW-OH 2 µM
H-RQIKIWFQNRRWGLQLK-OH 16 µM
H-GLWKRWKKVLWGAKNKI-OH 2 µM

----------
System: Acinetobacter baumannii
ASSAY_TEXT: Antimicrobial activity against CTX/CRO/CN drugs-resistant Acinetobacter baumannii 0214 assessed as inhibition of bacterial growth incubated for approximately 18 hrs by resazurin dye based broth microdilution assay
Assay type: functional
Attribute: MIC
ENDPOINT: MIC (µM)

H-AWKAKLKRLAIAWKR-OH 4
H-GLWKRWKKVLWGAKNKI-OH 4
H-RQIKIWFQNRRWGLQLK-OH 16
H-KWFKKLPKILHKLAKKW-OH 4

----------
ASSAY_TEXT: Hemolytic activity in Sprague-Dawley rat erythrocytes incubated for 1 hr by multifunctional microplate reader analysis
Format: toxicity, cell-based, Erythrocyte
CONDITION_SUMMARY: Sprague-Dawley, erythrocytes
ENDPOINT: log10(HC50 at 1 h) (log10 of the value in µM)

H-WFKKLLKLALKWAKYA-OH 1.12
H-LWKILKKIWRVLKNWN-OH 1.56
H-RRRLILWILWRRLR-OH 2.22
H-GWAKRLVQRLADWLRKF-OH 1.64
H-KWFKKLPKILHKLAKKW-OH 2.47
H-KWKIFKRIVGRILRYLR-OH 1.20
H-IWLAVWKGLLKRWLH-OH 1.02
H-RLWKIWLVWIRWRNQK-OH 2.52
H-KWARRLVYLIANYWKKR-OH 2.07
H-FWKKVFKWIWRVLHNFG-OH 1.10

----------
ASSAY_TEXT: Hemolytic activity in Sprague-Dawley rat erythrocytes incubated for 1 hr by multifunctional microplate reader analysis
Format: toxicity, cell-based, Erythrocyte
CONDITION_SUMMARY: erythrocyte, 1 h
ENDPOINT: HC5 (µM)

H-IWLAVWKGLLKRWLH-OH 1.17
H-LWKILKKIWRVLKNWN-OH 7.59
H-FWKKVFKWIWRVLHNFG-OH 1.28
H-RRRLILWILWRRLR-OH 10.09
H-KWARRLVYLIANYWKKR-OH 14.63
H-WFKKLLKLALKWAKYA-OH 1.46
H-GWAKRLVQRLADWLRKF-OH 7.22
H-RLWKIWLVWIRWRNQK-OH 27.41
H-KWFKKLPKILHKLAKKW-OH 38.67
H-KWKIFKRIVGRILRYLR-OH 1.47

----------
ASSAY_TEXT: Hemolytic activity in Sprague-Dawley rat erythrocytes incubated for 1 hr by multifunctional microplate reader analysis
Type: toxicity, cell-based, Erythrocyte
CONDITION_SUMMARY: Sprague-Dawley, erythrocytes
Attribute: HC50 at 1 h
ENDPOINT: HC50 at 1 h

H-AWKAKLKRLAIAWKR-OH > 256 µM
H-VLAANRLVRRLAQKIAR-OH > 256 µM
H-GLWKRWKKVLWGAKNKI-OH > 256 µM
H-RIRFKWRWWMRIRLKWY-OH > 256 µM
H-RQIKIWFQNRRWGLQLK-OH > 256 µM
